Assign half-life to each entry below.
- test: Disappearance in vitro in human whole blood
- Assay type: in vitro ADME
- test.parameters: 50 μg test compound, 37° C., read-out: T1/2 Human Whole Blood
Counter-ions that a name gives are not always drawn.
Could you give me the number in min? Just the number is fine.

Fill blank: measured half-life of the molecule CC(C)NCC(O)COC(=O)c1ccccc1 (stereo not drawn) [Example VI, Hydrochloride] is ____. 2.3

Also CC(C)(C)NCC(O)COC(=O)c1ccccc1F (stereo not drawn) ? 1.4

What do you have for CC(C)NCC(O)COC(=O)c1cccc(F)c1 (stereo not drawn) ? 8

Same question, CC(C)(C)NCC(O)COC(=O)c1ccccc1 (stereo not drawn) this time 5.3

Also, COc1ccc(C(=O)OCC(O)CNC(C)C)cc1 (stereo not drawn) please. 55

Next up: Cc1ccc(C(=O)OCC(O)CNC(C)C)cc1 (stereo not drawn) 6

* * *

- test: Disappearance in vitro in human whole blood
- Type: in vitro ADME
- test.parameters: 50 μg test compound, 37° C., read-out: T1/2 Human Whole Blood
Where a name gives a salt, the structure may show the parent alone.
I would appreciate it if you labelled entries MET when half-life is 6 min or higher, otherwise NOT MET.

Check if half-life >= 6 min (inclusive). Item: CC(C)NCC(O)COC(=O)c1ccc(F)cc1 (centres unmarked) [Example XX] NOT MET

Let us now turn to Cc1ccccc1C(=O)OCC(O)CNC(C)(C)C (centres unmarked) [XLI] MET

Cool, now Cc1cccc(C(=O)OCC(O)CNC(C)(C)C)c1 (centres unmarked) [XLII] NOT MET

Now try CC(C)NCC(O)COC(=O)c1ccccc1Cl (centres unmarked) [Example XII, hydrochloride] . NOT MET

Cool, now CC(C)(C)NCC(O)COC(=O)c1ccc(F)cc1 (centres unmarked) [XL] MET

And Cc1ccccc1C(=O)OCC(O)CNC(C)C (centres unmarked) [XVII] ? MET

Next compound: CC(C)NCC(O)COC(=O)c1ccccc1F (centres unmarked) [XVIII] NOT MET

* * *

- target.or.system: β-adrenergic receptors (guinea pig tracheal strips) (Cavia porcellus)
- Construct: from tissue; host or cells: guinea pig trachea (isolated spiral strips)
- Sequence (Q8K4Z4 whole entry): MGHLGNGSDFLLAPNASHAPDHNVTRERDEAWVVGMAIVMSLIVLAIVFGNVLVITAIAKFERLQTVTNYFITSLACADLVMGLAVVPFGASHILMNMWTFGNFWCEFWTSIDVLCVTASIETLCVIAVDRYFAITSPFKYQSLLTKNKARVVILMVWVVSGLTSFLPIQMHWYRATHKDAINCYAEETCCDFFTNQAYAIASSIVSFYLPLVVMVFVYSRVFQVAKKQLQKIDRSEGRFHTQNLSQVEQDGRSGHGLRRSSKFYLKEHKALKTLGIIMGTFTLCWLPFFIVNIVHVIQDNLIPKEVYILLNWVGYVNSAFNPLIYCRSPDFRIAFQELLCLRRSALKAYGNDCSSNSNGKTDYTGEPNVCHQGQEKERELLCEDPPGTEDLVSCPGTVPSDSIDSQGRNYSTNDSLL
- test: β-blocking activity in vitro, guinea pig tracheal strips (tension response to isoproterenol)
- Format: cell-based
- test.parameters: vs isoproterenol, 60 minute incubation, 37° C., read-out: pA2 Trachea (converted)
Structures can show the parent of a compound that is named as a salt.
Can you tell me Kb for the items I'm about to list?
Please reply with the bare figure in µM and do not write the unit itself.

Query: Kb; subject: CC(C)NCC(O)COC(=O)c1cccc2ccccc12 (centres unmarked) 0.1

Same question for CC(C)NCC(O)COC(=O)c1ccc(F)cc1 (centres unmarked) please. 0.0501

// query: COc1ccc(CCNCC(O)COC(=O)c2ccccc2)cc1OC (centres unmarked) 0.501

Continue with CC(C)NCC(O)COC(=O)c1cccc(N)c1 (centres unmarked) 0.158

Record: CC(C)(C)NCC(O)COC(=O)c1ccccc1F (centres unmarked) 0.01

One more compound: CC(C)NCC(O)COC(=O)c1cccc([N+](=O)[O-])c1 (centres unmarked) 0.0631

Next record, please: COc1ccc(CCNCC(O)C(=O)Oc2ccccc2)cc1OC (centres unmarked) [Example I, Hydrochloride] 1.26

And then CC(C)(C)NCC(O)COC(=O)c1ccccc1 (centres unmarked) , what is it? 0.02

Next compound: COc1ccc(CCNCC(O)COC(=O)c2ccc(F)cc2)cc1OC (centres unmarked) 0.2

Next compound up: CC(C)NCC(O)COC(=O)c1ccc(CO)cc1 (centres unmarked) [Example LXIV, hydrochloride] 0.501

Next entry: COc1ccc(CCNCC(O)COC(=O)c2ccccc2F)cc1OC (centres unmarked) 2

Ok, now Cc1cccc(C(=O)OCC(O)CNC(C)C)c1 (centres unmarked) 0.0501

Item: CC(C)NCC(O)COC(=O)c1cccc(F)c1 (centres unmarked) 0.1

Now try COc1ccc(CCNCC(O)COC(=O)c2cccc(F)c2)cc1OC (centres unmarked) . 0.631

Queued: COc1ccc(C(=O)OCC(O)CNC(C)C)cc1 (centres unmarked) 0.501

Entry to check: CC(C)NCC(O)COC(=O)c1ccc(O)cc1 (centres unmarked) 0.0631

Now consider CC(C)NCC(O)COC(=O)c1ccc2ccccc2c1 (centres unmarked) . 0.251

One more compound: CC(=O)Nc1ccc(C(=O)OCC(O)CNC(C)C)cc1 (centres unmarked) [Example LXII, hydrochloride] 6.31

Try Cc1ccc(C(=O)OCC(O)CNC(C)C)cc1 (centres unmarked) next. 0.158

What would you report for COc1ccc(CCNCC(O)COC(=O)c2ccccc2Cl)cc1OC (centres unmarked) ? 0.0316

Then what about the compound CC(C)NCC(O)COC(=O)c1ccccc1F (centres unmarked) ? 0.0794

Then COc1ccc(CCNCC(O)COC(=O)c2ccc(C)cc2)cc1OC (centres unmarked) ? 1

Try COc1ccccc1COC(=O)C(O)CNCCc1ccc(OC)c(OC)c1 (centres unmarked) next. 10

* * *

- Tested on: heart rate response to isoproterenol
- test: Duration of beta-blockade in vivo, anesthetized dogs, 40-minute infusion
- Parameters: species or system dog
- test.parameters: 100% recovery of heart rate after 40-minute infusion, normalized to 50% inhibition, dog
Where a name gives a salt, the structure may show the parent alone.
Please mark Satisfied if the recorded Recovery Times 100% is equal to or greater than 20 min, and Not satisfied if it falls below.

Identify whether the reported Recovery Times 100% of the following compound is 20 min or greater: CC(C)NCC(O)COc1cccc2ccccc12 (stereo not shown) [Propranolol, reference compound] Satisfied

Try COc1ccc(CCNCC(O)C(=O)Oc2ccccc2)cc1OC (stereo not shown) [Example I, Hydrochloride] next. Not satisfied

Now consider CC(C)NCC(O)COC(=O)c1ccccc1 (stereo not shown) [Example VI, Hydrochloride] . Satisfied

Queued: COc1ccc(CCNCC(O)COC(=O)c2cccc(C)c2)cc1OC (stereo not shown) Not satisfied

Please do the same for Cc1ccc(C(=O)OCC(O)CNC(C)C)cc1 (stereo not shown) as well. Satisfied

Moving on to the next compound: COc1ccc(CCNCC(O)COC(=O)c2ccc(C)cc2)cc1OC (stereo not shown) Satisfied

Try the compound CC(C)NCC(O)COC(=O)c1ccccc1Cl (stereo not shown) [Example XII, hydrochloride] Satisfied

How about this compound: CC(C)NCC(O)COC(=O)c1cccc2ccccc12 (stereo not shown) Satisfied

Quick one: COc1ccc(CCNCC(O)COC(=O)c2ccccc2Cl)cc1OC (stereo not shown) Satisfied

* * *

- test: Disappearance in vitro in dog liver homogenate
- Assay type: in vitro ADME
- test.parameters: 50 μg test compound, 33% (w/v) liver homogenate, 37° C., read-out: T1/2 Dog Liver Homogenate
- Method: The rate of disappearance of a compound is expressed as the half-life (T1/2), which is the time period in which one half of the initial amount of compound tested disappears. […] After centrifugation to sediment denatured proteins, 2 ml. of the supernatant was removed and analyzed by high pressure liquid chromatography, using a mobile phase of 60% acetonitrile/40% 0.05 m sodium phosphate buffer (pH 6.6), a U.V. detector and Waters® μ Bondapak Phenyl column. […]
Structures can show the parent of a compound that is named as a salt.
Please use Fulfilled whenever half-life is not below 10 min, and Not fulfilled whenever it is.

For this molecule, is measured half-life 10 min or higher? CC(C)NCC(O)COC(=O)c1ccccc1 (stereo not shown) [Example VI, Hydrochloride] Not fulfilled

Then this molecule: CC(C)NCC(O)COC(=O)c1ccccc1Cl (stereo not shown) [Example XII, hydrochloride] Fulfilled

One more molecule: CC(C)(C)NCC(O)COC(=O)c1ccccc1F (stereo not shown) Fulfilled

Would you mind doing COc1ccc(C(=O)OCC(O)CNC(C)C)cc1 (stereo not shown) as well? Fulfilled

Now give it for CC(C)(C)NCC(O)COC(=O)c1ccccc1Cl (stereo not shown) too. Fulfilled

Cc1ccccc1C(=O)OCC(O)CNC(C)C (stereo not shown) , same question. Fulfilled

* * *

- test: Disappearance in vitro in dog whole blood
- Format: in vitro ADME
- test.parameters: 50 μg test compound, 37° C., read-out: T1/2 Dog Whole Blood
Structures can show the parent of a compound that is named as a salt.
I'd be grateful if you could share measured half-life for these entries.

Reported half-life, compound CC(C)(C)NCC(O)COC(=O)c1ccccc1 (centres unmarked) : ____ 5.5 min

Record: CC(C)NCC(O)COC(=O)c1cccc(F)c1 (centres unmarked) 50 min

Same thing, different compound: COc1ccc(C(=O)OCC(O)CNC(C)C)cc1 (centres unmarked) 150 min

Entry to check: Cc1ccccc1C(=O)OCC(O)CNC(C)C (centres unmarked) > 180 min

And the next one, CC(C)NCC(O)COC(=O)c1ccc(F)cc1 (centres unmarked) ? 4 min

Now consider Cc1ccccc1C(=O)OCC(O)CNC(C)(C)C (centres unmarked) and answer again. > 180 min

Also CC(C)(C)NCC(O)COC(=O)c1ccccc1Cl (centres unmarked) , if possible. 30 min

Another compound: Cc1ccc(C(=O)OCC(O)CNC(C)C)cc1 (centres unmarked) 67 min

Now consider CC(C)NCC(O)COC(=O)c1ccccc1 (centres unmarked) [Example VI, Hydrochloride] . 6.8 min

Ok, now CC(C)(C)NCC(O)COC(=O)c1ccc(F)cc1 (centres unmarked) 13 min

Could you do the same for CC(C)NCC(O)COC(=O)c1ccccc1F (centres unmarked) , please? 7 min

Try Cc1cccc(C(=O)OCC(O)CNC(C)(C)C)c1 (centres unmarked) next. 150 min

Another: CC(C)(C)NCC(O)COC(=O)c1ccccc1F (centres unmarked) 6 min

Similarly, CC(C)NCC(O)COC(=O)c1ccccc1Cl (centres unmarked) [Example XII, hydrochloride] ? 28 min
